# Run Description: Acute toxicity, oral administration
# Set-up: species or system RFVL type mice
# Condition: mouse, in vivo, male mice
Measured Quantity: LD50

Please supply the value of reported LD50 for the item CC(C(=O)[O-])c1ccc(CC2CCCC2=O)cc1.[Na+] (stereo not shown)
3030 mg/kg

---

# Run Description: Acute toxicity, oral administration
# Parameters: species or system RFVL type mice
# Condition: mouse, in vivo, female mice
Measured Quantity: LD50

Supply reported LD50 belonging to this compound: CC(C(=O)[O-])c1ccc(CC2CCCC2=O)cc1.[Na+] (stereo not shown)
3150 mg/kg

The reported measurements were obtained from patent US4599360A.
